- Tested on: Histone-lysine N-methyltransferase SETD7 (Homo sapiens, UniProt Q8WTS6)
- Sequence (Q8WTS6 whole entry): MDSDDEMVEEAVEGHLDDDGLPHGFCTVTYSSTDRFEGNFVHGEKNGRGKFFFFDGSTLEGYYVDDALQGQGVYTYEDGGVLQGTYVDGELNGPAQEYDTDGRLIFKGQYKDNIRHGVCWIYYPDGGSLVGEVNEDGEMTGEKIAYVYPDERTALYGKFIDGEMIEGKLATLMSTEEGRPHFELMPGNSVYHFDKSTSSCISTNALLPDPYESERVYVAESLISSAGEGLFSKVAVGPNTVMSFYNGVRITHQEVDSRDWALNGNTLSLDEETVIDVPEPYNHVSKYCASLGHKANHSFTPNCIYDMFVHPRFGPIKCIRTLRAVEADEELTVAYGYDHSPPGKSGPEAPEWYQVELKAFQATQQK
pIC50: −log10 of the molar value.
Endpoint: pIC50

>>> df
                              smiles_record  endpoint  recorded_result
0  COc1cc2c(NC3CCN(C4CCCCC4)CC3)nc(N3CCCN(C(C)C)CC3)nc2cc1OCCCN1CCCCC1     pIC50           < 5.00

* * *

- Test system: MDA-MB-231
- Method description: Cytotoxicity against human MDA-MB-231 cells assessed as cell viability after 48 hrs by MTT assay
- Assay type: functional, cell-based
- Settings: MDA-MB-231, 48 h
Endpoint: EC50

>>> print(df.to_string())
                              smiles_record   tested_on  recorded_result
0  COc1cc2c(NC3CCN(C)CC3)nc(N3CCCN(C)CC3)nc2cc1OCCOCCN(C)C  MDA-MB-231          > 40 µM
1  CCN1CCCN(c2nc(NC3CCN(C(C)C)CC3)c3cc(OC)c(OCCCN4CCCC4)cc3n2)CC1  MDA-MB-231           1.7 µM
2  COc1cc2c(NC3CCN(C(C)C)CC3)nc(N3CCCCCC3)nc2cc1OCCCN1CCCCC1  MDA-MB-231           6.6 µM
3  COc1cc2c(NC3CCN(C4CCCCC4)CC3)nc(N3CCCN(C(C)C)CC3)nc2cc1OCCCN1CCCCC1  MDA-MB-231           3.3 µM
4  COc1cc2c(NC3CCN(C(C)C)CC3)nc(N3CCCN(c4ccccc4)CC3)nc2cc1OCCCN1CCCC1  MDA-MB-231           2.1 µM

* * *

- Test system: CWR22R
- Method description: Cytotoxicity against human 22Rv1 cells assessed as cell viability after 48 hrs by MTT assay
- Format: functional, cell-based
- Settings: 22Rv1, 48 h
pEC50: −log10 of the molar value.
Endpoint: pEC50

>>> df
                              smiles_record  tested_on  endpoint  recorded_result
0  COc1cc2c(NC3CCN(C(C)C)CC3)nc(C3CCCCC3)nc2cc1OCCCN1CCCC1     CWR22R     pEC50             5.35

* * *

- Tested on: Histone-lysine N-methyltransferase EHMT2 (Homo sapiens)
- Sequence (Q96KQ7 whole entry): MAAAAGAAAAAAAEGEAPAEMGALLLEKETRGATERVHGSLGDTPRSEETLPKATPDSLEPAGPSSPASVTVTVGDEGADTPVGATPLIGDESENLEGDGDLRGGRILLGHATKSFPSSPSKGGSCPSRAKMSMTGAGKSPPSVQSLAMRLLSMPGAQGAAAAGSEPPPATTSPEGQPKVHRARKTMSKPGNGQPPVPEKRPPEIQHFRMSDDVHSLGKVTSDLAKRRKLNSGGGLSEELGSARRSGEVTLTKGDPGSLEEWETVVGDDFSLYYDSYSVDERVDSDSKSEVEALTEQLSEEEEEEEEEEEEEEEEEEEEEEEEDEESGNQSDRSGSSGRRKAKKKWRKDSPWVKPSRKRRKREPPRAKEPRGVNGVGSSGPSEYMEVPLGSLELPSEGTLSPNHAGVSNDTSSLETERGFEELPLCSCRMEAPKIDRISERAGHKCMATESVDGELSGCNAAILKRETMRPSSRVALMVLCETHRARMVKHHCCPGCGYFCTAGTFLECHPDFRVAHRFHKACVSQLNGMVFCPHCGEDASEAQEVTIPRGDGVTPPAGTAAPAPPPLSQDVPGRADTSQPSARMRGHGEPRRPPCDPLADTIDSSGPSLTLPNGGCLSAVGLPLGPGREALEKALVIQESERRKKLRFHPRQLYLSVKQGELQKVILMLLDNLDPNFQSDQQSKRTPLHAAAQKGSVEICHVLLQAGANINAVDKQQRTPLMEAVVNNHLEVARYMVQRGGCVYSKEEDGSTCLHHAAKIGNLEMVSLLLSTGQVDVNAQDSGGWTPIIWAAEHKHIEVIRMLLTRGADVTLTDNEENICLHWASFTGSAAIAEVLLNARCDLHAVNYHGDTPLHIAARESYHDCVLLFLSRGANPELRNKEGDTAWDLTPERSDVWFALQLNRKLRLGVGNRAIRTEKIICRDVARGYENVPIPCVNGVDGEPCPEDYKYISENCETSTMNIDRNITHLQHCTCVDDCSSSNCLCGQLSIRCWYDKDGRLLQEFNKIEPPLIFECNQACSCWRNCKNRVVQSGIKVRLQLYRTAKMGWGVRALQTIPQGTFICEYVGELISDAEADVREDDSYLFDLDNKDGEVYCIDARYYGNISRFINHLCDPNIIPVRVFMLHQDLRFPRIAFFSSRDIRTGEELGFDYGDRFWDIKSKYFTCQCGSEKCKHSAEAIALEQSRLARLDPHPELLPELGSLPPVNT
- Method description: Inhibition of G9a in human 22Rv1 cells assessed as reduction of H3K9me2 after 48 hrs by In-Cell Western assay
- Type: cell-based, CWR22R
Endpoint: IC50 (nM)

>>> print(df.to_string())
                              smiles_record  endpoint  recorded_result
0  COc1cc2c(NC3CCN(CC4CCCCC4)CC3)nc(N3CCCN(C(C)C)CC3)nc2cc1OCCCN1CCCCC1      IC50               24

* * *

- Method description: Cytotoxicity against human […] assessed as cell viability after 48 hrs by MTT assay
- Assay type: functional, cell-based
pEC50: −log10 of the molar value.
Endpoint: pEC50

>>> df
                              smiles_record  recorded_result
0  COc1cc2c(NC3CCN(C(C)C)CC3)nc(C3CCCCC3)nc2cc1OCCCN1CCCC1             5.12

* * *

- Tested on: Histone-lysine N-methyltransferase EHMT2 (Homo sapiens, UniProt Q96KQ7)
- Method description: Inhibition of G9a in p53-deficient human HCT116 cells assessed as reduction of H3K9me2 after 48 hrs by In-Cell Western assay
- Assay type: cell-based, HCT-116
pIC50: −log10 of the molar value.
Endpoint: pIC50

In [3]: df
Out[3]:
                              smiles_record                                 tested_on  endpoint  recorded_result
0  COc1cc2c(NC3CCN(CC4CCCCC4)CC3)nc(N3CCCN(C(C)C)CC3)nc2cc1OCCCN1CCCCC1  Histone-lysine N-methyltransferase EHMT2 (Homo sapiens, UniProt Q96KQ7)     pIC50             7.14

* * *

- Tested on: Protein arginine N-methyltransferase 3 (Homo sapiens, UniProt O60678)
- Sequence (O60678 whole entry): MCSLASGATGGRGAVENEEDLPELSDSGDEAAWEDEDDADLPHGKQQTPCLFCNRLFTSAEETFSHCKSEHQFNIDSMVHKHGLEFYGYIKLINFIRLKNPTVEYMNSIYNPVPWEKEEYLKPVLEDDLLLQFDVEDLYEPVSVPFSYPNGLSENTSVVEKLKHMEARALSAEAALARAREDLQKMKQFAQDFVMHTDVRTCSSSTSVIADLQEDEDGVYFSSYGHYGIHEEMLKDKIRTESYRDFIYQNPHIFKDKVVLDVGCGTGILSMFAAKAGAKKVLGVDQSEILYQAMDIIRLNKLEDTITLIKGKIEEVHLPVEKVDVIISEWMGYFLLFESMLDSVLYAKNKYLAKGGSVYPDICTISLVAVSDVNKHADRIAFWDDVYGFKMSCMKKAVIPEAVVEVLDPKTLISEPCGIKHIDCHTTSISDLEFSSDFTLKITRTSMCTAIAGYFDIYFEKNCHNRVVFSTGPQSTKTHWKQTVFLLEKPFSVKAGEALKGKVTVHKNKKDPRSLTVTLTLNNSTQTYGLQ
pIC50: −log10 of the molar value.
Endpoint: pIC50

In [3]: df
Out[3]:
                              smiles_record                                 tested_on  endpoint  recorded_result
0  COc1cc2c(NC3CCN(C4CCCCC4)CC3)nc(N3CCCN(C(C)C)CC3)nc2cc1OCCCN1CCCCC1  Protein arginine N-methyltransferase 3 (Homo sapiens, UniProt O60678)     pIC50           < 5.00

* * *

- Tested on: UniProt Q9H9B1
- Sequence (Q9H9B1 whole entry): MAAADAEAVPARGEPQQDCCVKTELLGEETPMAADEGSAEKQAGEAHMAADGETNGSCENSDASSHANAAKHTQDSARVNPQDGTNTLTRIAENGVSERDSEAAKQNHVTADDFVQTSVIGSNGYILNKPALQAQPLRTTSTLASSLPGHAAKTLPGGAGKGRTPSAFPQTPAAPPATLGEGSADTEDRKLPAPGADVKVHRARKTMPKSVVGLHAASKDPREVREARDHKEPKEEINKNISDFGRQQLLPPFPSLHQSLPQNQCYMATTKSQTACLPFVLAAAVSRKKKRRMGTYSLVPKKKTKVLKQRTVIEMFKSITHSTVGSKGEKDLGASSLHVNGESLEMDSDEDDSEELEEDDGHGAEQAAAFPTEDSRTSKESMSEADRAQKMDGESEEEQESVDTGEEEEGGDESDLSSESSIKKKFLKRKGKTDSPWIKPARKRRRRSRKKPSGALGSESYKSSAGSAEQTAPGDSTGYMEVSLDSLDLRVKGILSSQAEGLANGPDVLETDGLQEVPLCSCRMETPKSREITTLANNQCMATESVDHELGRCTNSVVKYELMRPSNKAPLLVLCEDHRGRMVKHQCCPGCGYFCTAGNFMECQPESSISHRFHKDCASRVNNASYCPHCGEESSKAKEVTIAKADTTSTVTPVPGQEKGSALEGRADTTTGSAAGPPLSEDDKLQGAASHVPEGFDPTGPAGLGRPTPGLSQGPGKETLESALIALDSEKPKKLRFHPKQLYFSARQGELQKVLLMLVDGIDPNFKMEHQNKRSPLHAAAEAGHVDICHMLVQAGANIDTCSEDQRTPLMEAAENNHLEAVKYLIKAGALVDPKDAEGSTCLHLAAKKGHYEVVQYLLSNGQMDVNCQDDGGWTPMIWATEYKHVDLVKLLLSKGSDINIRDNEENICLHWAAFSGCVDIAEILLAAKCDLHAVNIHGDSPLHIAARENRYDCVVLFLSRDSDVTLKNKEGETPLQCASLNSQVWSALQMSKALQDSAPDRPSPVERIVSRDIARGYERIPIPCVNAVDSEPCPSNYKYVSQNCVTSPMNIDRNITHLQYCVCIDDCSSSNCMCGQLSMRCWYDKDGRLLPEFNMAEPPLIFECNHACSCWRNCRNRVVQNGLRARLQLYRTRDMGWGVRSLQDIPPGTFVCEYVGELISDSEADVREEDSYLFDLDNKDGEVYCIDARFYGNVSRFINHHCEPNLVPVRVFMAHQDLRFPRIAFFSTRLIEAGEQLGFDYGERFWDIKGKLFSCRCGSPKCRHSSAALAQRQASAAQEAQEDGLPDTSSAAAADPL
pIC50: −log10 of the molar value.
Endpoint: pIC50

In [3]: df
Out[3]:
                              smiles_record  recorded_result
0  COc1cc2c(NC3CCN(C4CCCCC4)CC3)nc(N3CCCN(C(C)C)CC3)nc2cc1OCCCN1CCCCC1           > 7.82
